experimental-target: human GCG receptor (human, UniProt P47871 26-477)
Sequence (P47871 26-477): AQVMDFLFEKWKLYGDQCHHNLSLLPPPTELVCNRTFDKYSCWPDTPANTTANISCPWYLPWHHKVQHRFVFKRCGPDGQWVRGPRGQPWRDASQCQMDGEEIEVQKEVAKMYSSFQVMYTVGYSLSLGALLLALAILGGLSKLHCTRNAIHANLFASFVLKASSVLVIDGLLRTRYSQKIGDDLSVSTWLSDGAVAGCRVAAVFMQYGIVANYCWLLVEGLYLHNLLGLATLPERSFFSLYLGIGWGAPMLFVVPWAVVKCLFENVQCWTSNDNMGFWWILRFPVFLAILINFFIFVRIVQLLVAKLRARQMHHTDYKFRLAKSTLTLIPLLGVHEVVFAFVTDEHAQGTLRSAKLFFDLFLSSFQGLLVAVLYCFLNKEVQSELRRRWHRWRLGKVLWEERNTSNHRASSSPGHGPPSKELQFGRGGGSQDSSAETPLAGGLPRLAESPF
experiment-description: cell-based or functional assay
Bridges are numbered along the chain shown (N, C = ends). Where no end group is shown, it is not given here. [ ]: non-standard residue; d: D form. Aib = CC(C)(N)C(=O)O
For each of the binders below, state its in vitro Activity Compared to Native Peptide (%), vs Glucagon.
Give your result in % as a bare value.

in vitro Activity Compared to Native Peptide (%), vs Glucagon reading for Y[Aib]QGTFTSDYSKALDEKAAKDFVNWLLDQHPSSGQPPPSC (bridge 16-20; not fully specified (C-terminus); also: ring type not given here) [triple agonist of SEQ ID NO: 102] : 29.5

get_value(item= H[Aib]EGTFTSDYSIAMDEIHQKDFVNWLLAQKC (bridge 16-20; not fully specified (C-terminus)) [triple agonist of SEQ ID NO: 79] , readout=in vitro Activity Compared to Native Peptide (%), vs Glucagon) returns 4.9
